Values from the RNAGym collection of RNA variant scans (doi:10.7554/elife.80360)

B1: CPEB3 Ribozyme (parent)
chain: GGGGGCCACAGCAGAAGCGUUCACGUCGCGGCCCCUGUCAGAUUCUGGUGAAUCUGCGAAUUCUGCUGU

- Variants of: B1
- procedure text: self-cleavage, relative activity (ratio to wild type); higher = more cleavage; co-transcriptional
reported property: self-cleavage
Numbers only.

Example results:
• G41C C66G = 0.369
• A15G U20A = 0.092
• A13U U38G = 0.198
• G1C A51C = 0.149
• G4U A16U = 0.235
• C57U U69G = 0.473
• C22G U62C = 0.117
• U20A C22U = 0.176
• G3A G37A = 0.143
• C45U A52C = 0.988

Please find the next variant below.
Request: Looking for the measured self-cleavage of A23U C27G , can you help?
Response: 0.164
